ASSAY: Half life in marmoset at 3 mg/kg, iv
Type: ADME, organism-based
RUN PARAMETERS: callitrichinae sp., in vivo
Known half-life of a selection of compounds
// note: answer is a bare numeric in h

input: Reported half-life for `CC(C)(O/N=C(\C(=O)N[C@@H]1C(=O)N2C(C(=O)[O-])=C(C[n+]3ccccc3)CS[C@H]12)c1csc(N)n1)C(=O)O` : what is it?
output: 0.7

Continuing:
input: Reported half-life for CCn1cc(C(=O)NCC2=C(C(=O)O)N3C(=O)[C@@H](NC(=O)/C(=N\OC(C)(C)C(=O)O)c4csc(N)n4)C3SC2)c(=O)c2cc(O)c(O)cc21 (stereo in doubt) : what is it?
output: 3.47

====

Test system: Escherichia coli
ASSAY: Antibacterial activity against Escherichia coli 2010-05 assessed as bacterial growth inhibition measured after 24 hrs by agar dilution method
Assay type: functional
ASSAY READOUT: MIC (µg/mL)
// note: answer is a bare numeric in µg/mL

Example cases with answers are listed next.
input: For the record `CC1(N)CN(c2c(F)cc3c(=O)c(C(=O)O)cn(-c4cc(N)c(F)cc4CO)c3c2Cl)C1` , what value of MIC is listed for Escherichia coli?
output: 1

input: Moving on to `CCNC1CN(c2c(F)cc3c(=O)c(C(=O)O)cn(-c4cc(N)c(F)cc4CO)c3c2Cl)C1`
output: 1

Continuing:
input: For the record `CNC1(C)CN(c2c(F)cc3c(=O)c(C(=O)O)cn(-c4cc(N)c(F)cc4CO)c3c2Cl)C1` , what value of MIC is listed for Escherichia coli?
output: 1

input: Moving on to `CNC1CN(c2c(F)c(N)c3c(=O)c(C(=O)O)cn(-c4cc(N)c(F)cc4CO)c3c2Cl)C1`
output: 1

input: Moving on to `CNC1CN(c2c(F)c(C)c3c(=O)c(C(=O)O)cn(-c4cc(N)c(F)cc4CO)c3c2Cl)C1`
output: 1

input: Moving on to O=C(O)c1cn(C2CC2)c2cc(N3CCNCC3)c(F)cc2c1=O [CIPROFLOXACIN]
output: 64

input: Moving on to `Nc1cc(-n2cc(C(=O)O)c(=O)c3cc(F)c(N4CC(N)C4)c(Cl)c32)c(CO)cc1F`
output: 1

input: Moving on to `CNC1CN(c2c(F)cc3c(=O)c(C(=O)O)cn(-c4cc(N)c(F)cc4CO)c3c2Cl)C1`
output: 2

input: Moving on to C[C@H]1COc2c(N3CCN(C)CC3)c(F)cc3c(=O)c(C(=O)O)cn1c23.C[C@H]1COc2c(N3CCN(C)CC3)c(F)cc3c(=O)c(C(=O)O)cn1c23.O [LEVOFLOXACIN]
output: 32

input: Moving on to `Nc1cc(-n2cc(C(=O)O)c(=O)c3cc(F)c(N4CC(O)C4)c(Cl)c32)c(CO)cc1F`
output: 1

====

System: Escherichia coli
ASSAY: Antibacterial activity against Escherichia coli assessed as bacterial growth inhibition incubated for 18 to 20 hrs by agar dilution method
Format: functional
RUN PARAMETERS: time 18-20 hrs
Known MIC of a selection of molecules
// note: answer is a bare numeric in µg/mL

input: Reported MIC for `COc1cc(Cc2cnc(/N=C3\C(=O)N(CN4CCN(c5cc6c(cc5F)c(=O)c(C(=O)O)cn6C5CC5)CC4)c4ccccc43)nc2N)cc(OC)c1OC` : what is it?
output: 0.0095

input: Moving on to CCn1cc(C(=O)O)c(=O)c2cc(F)c(N3CCN(CN4C(=O)/C(=N\c5ncc(Cc6cc(OC)c(OC)c(OC)c6)c(N)n5)c5ccccc54)C(C)C3)c(F)c21 (configuration not stated)
output: 0.305

input: Moving on to CCn1cc(C(=O)O)c(=O)c2cc(F)c(N3CCNC(C)C3)c(F)c21 (configuration not stated)
output: 0.02

input: Moving on to `CCn1cc(C(=O)O)c(=O)c2cc(F)c(N3CCNCC3)cc21`
output: 0.31

input: Moving on to COc1cc(Cc2cnc(/N=C3\C(=O)N(CN4CCN(c5c(F)cc6c(=O)c(C(=O)O)cn(C7CC7)c6c5OC)CC4C)c4ccccc43)nc2N)cc(OC)c1OC (configuration not stated)
output: 0.02

Continuing:
input: Reported MIC for COc1c(N2CCNC(C)C2)c(F)cc2c(=O)c(C(=O)O)cn(C3CC3)c12 (configuration not stated) : what is it?
output: 0.015

input: Moving on to `CCn1cc(C(=O)O)c(=O)c2cc(F)c(N3CCN(CN4C(=O)/C(=N\c5ncc(Cc6cc(OC)c(OC)c(OC)c6)c(N)n5)c5ccccc54)CC3)cc21`
output: 0.0763

====

Test system: Escherichia coli
ASSAY: Antibacterial activity against Escherichia coli assessed as bacterial growth inhibition incubated for 18 hrs by twofold serial dilution assay
Type: functional
ASSAY READOUT: MIC (µg/mL)
// note: answer is a bare numeric in µg/mL

Example cases with answers are listed next.
input: For the record O=C(O)c1cn(C2CC2)c2c(F)c(N3CCNCC(O)C3)c(F)cc2c1=O (centres undefined) , what value of MIC is listed for Escherichia coli?
output: 0.25

input: Moving on to `CCn1cc(C(=O)O)c(=O)c2cc(F)c(N3CCN(C/C(=N/OCc4ccccc4)c4ccoc4)CC3)cc21`
output: 0.049

input: Moving on to `O=C(O)c1cn(C2CC2)c2cc(N3CCN(C/C(=N/O)c4ccoc4)CC3)c(F)cc2c1=O`
output: 0.049

input: Moving on to `O=C(O)c1cn(C2CC2)c2nc(N3CCN(C/C(=N/OCc4ccccc4)c4ccoc4)CC3)c(F)cc2c1=O`
output: 0.049

input: Moving on to O=C(O)c1cn(C2CC2)c2c(F)c(N3CCNCC(F)C3)c(F)cc2c1=O (centres undefined)
output: 0.03

Continuing:
input: For the record `CCn1cc(C(=O)O)c(=O)c2cc(F)c(N3CCN(C/C(=N/O)c4ccoc4)CC3)cc21` , what value of MIC is listed for Escherichia coli?
output: 0.049

input: Moving on to `CCn1cc(C(=O)O)c(=O)c2cc(F)c(N3CCN(C/C(=N/OCc4ccccc4)c4ccoc4)CC3)nc21`
output: 0.049

input: Moving on to `O=C(CN1CCN(c2cc3c(cc2F)c(=O)c(C(=O)O)cn3C2CC2)CC1)c1ccoc1`
output: 0.049

====

System: Escherichia coli
ASSAY: Antibacterial activity against Escherichia coli KC-14 infected in po dosed mouse assessed as bacterial growth inhibition
Assay type: functional
RUN PARAMETERS: Escherichia coli, KC-14, po, read-out: ED50
ASSAY READOUT: ED50 (mg/kg)
// note: answer is a bare numeric in mg/kg

input: Reported ED50 for COc1c(N2CCN(C)CC2)c(F)cc2c(=O)c(C(=O)O)c3n(c12)C(CF)S3 (stereo not drawn) : what is it?
output: 0.76

Continuing:
input: Reported ED50 for CCOC(=O)c1c2n(c3cc(N4CCN(C(C)=O)CC4)c(F)cc3c1=O)C(C)S2 (stereo not drawn) : what is it?
output: 0.89

input: Moving on to CN1CCN(c2cc3c(cc2F)c(=O)c(C(=O)O)c2n3C(CF)S2)CC1 (stereo not drawn)
output: 0.85

====

Test system: Escherichia coli
ASSAY: Antibacterial activity against Escherichia coli assessed as bacterial growth inhibition
Format: functional
Known MIC of a selection of compounds
// note: answer is a bare numeric in µg/mL

input: For the record CC1Cn2cc(C(=O)O)c(=O)c3cc(F)c(N4C(C)CNCC4C)c(c32)S1 (centres undefined) , what value of MIC is listed for Escherichia coli?
output: 0.12

input: Moving on to CC1Cn2cc(C(=O)O)c(=O)c3cc(F)c(N4CCN(S(=O)(=O)c5ccc(F)cc5)CC4)c(c32)S1 (centres undefined)
output: 0.12

input: Moving on to `CC(=O)c1cc2ccccc2n(/N=C/c2ccccc2Cl)c1=O`
output: 1.6

input: Moving on to CC1Cn2cc(C(=O)O)c(=O)c3cc(F)c(N4CCN(c5ccc(F)cc5)CC4)c(c32)S1 (centres undefined)
output: 0.12

input: Moving on to `CC(=O)c1cc2ccccc2n(/N=C/c2cccc([N+](=O)[O-])c2)c1=O`
output: 1.6

input: Moving on to CC1Cn2cc(C(=O)O)c(=O)c3cc(F)c(N4CCNCC4)c(c32)S1 (centres undefined)
output: 0.25

Continuing:
input: For the record `CC(=O)c1cc2ccccc2n(/N=C/c2ccc(O)cc2)c1=O` , what value of MIC is listed for Escherichia coli?
output: 1.6

input: Moving on to CN1CCN(c2c(F)cc3c(=O)c(C(=O)O)cn4c3c2SC(c2ccc(F)cc2)C4)CC1 (centres undefined)
output: 0.12

input: Moving on to `COc1cc(/C=N/n2c(=O)c(C(C)=O)cc3cc(Cl)ccc32)cc(OC)c1OC`
output: 1.6

Reference source for all entries: ChEMBL document CHEMBL5244219
